Method summary: log P by HPLC on reversed-phase column (C18), EEC Directive 79/831 Annex V.A8
Type: physicochemical
Protocol conditions: C18, 40° C., acidic
Experimental endpoint: log p acidic

[[record]]
molecule = "CCCN(C)C=Nc1cc(Cl)c(Oc2cc(C(C)(C)C)nn2C)cc1C [compound 597]"
experimental_endpoint = "log p acidic"
readout_number = 1.90

[[record]]
molecule = "Cc1cc(Oc2cc(Cl)cc(C(F)(F)F)c2)c(Cl)cc1N=CN1CCCCC1 [compound 568]"
experimental_endpoint = "log p acidic"
readout_number = 2.86

[[record]]
molecule = "CCN(C)C=Nc1cc(OC)c(Oc2ccc(Cl)c(C(C)(C)C)c2)cc1C [compound 733]"
experimental_endpoint = "log p acidic"
readout_number = 2.75

[[record]]
molecule = "CCN(C)C=Nc1cc(C)c(-c2ccc(Cl)c(C(F)(F)F)c2)cc1Cl [compound 928]"
experimental_endpoint = "log p acidic"
readout_number = 2.3

[[record]]
molecule = "CCN(C)C=Nc1cc(OC)c(Oc2ccc(Cl)c(C(F)(F)F)c2)cc1OC [compound 986]"
experimental_endpoint = "log p acidic"
readout_number = 2.23


I. CCN(C)C=Nc1cc(Cl)c(Oc2cc(C(C)(C)C)nn2C)cc1C [compound 596]
II. CCC(C)N(C)C=Nc1cc(Cl)c(Oc2ccc(Cl)c(C(C)C)c2)cc1C (stereo not drawn) [compound 573]
Lower value for measured log p acidic? Options: I , II Answer = label. I

P. COc1cc(-c2ccc(C)cc2)c(OC)cc1N=CN(C)C [compound 998]
Q. CCN(C)C=Nc1cc(F)c(-c2ccc(C(C)(C)C)cc2)cc1F [compound 846]
Lower value for measured log p acidic? Options: P , Q Answer = label. P
(P: 1.76, Q: 2.79)
